- Test system: TP53
- ASSAY EXPLANATION: 3' UTR reporter interaction score (median-centred robust z-score of log2 firefly/Renilla activity); higher = less repression of the 3' UTR reporter
- REPORTED CONDITIONS: HEK293T; 48 h
Classification field: enter TRUE for 3' UTR reporter interaction score values not below -0.02, FALSE for values below it.

These solved cases illustrate the format of a correct answer.
* ACUAGACUGAAGCUCCUUGAGG | TRUE
* UUGUACAUGGUAGGCUUUCAUU | FALSE
* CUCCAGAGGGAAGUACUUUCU | FALSE
* UAGGUAGUUUCAUGUUGUUGG | TRUE
* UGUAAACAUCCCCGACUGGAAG | FALSE

## Input Hi team, for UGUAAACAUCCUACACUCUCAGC , is the recorded 3' UTR reporter interaction score at or above -0.02?
## Output TRUE

## Input # bool: 3' UTR reporter interaction score of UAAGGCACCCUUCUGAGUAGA >= -0.02
## Output FALSE

## Input 3' UTR reporter interaction score >= -0.02 for AAAGUGCUUCCUUUUUGAGGG ?
## Output TRUE

## Input Has AAAGCGCUUCCCUUCAGAGUGU a recorded 3' UTR reporter interaction score greater than or equal to -0.02?
## Output TRUE

## Input Textbook exercise: given the entry GUCAACACUUGCUGGUUUCCUC , state whether its 3' UTR reporter interaction score is greater than or equal to -0.02.
## Output FALSE

## Input Has GUGCAUUGUAGUUGCAUUG a recorded 3' UTR reporter interaction score greater than or equal to -0.02?
## Output TRUE

## Input Given the entry UCCCUGAGACCCUAACUUGUGA , answer whether its 3' UTR reporter interaction score meets or surpasses -0.02.
## Output FALSE

## Input Given CUGGACUUAGGGUCAGAAGGCC , state whether its 3' UTR reporter interaction score is at least -0.02.
## Output FALSE

## Input State whether the measured 3' UTR reporter interaction score reaches -0.02, counting equality as reaching it, for UAUUGCACUUGUCCCGGCCUG
## Output TRUE

## Input Does the reported 3' UTR reporter interaction score for UCACAAUGCUGACACUCAAACUGCUGAC fall at or above the -0.02 mark?
## Output FALSE

## Input Decide: is the reported value of 3' UTR reporter interaction score for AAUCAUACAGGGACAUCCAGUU equal to or greater than -0.02?
## Output FALSE

## Input Reported 3' UTR reporter interaction score reaches at least -0.02 for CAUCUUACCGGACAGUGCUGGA ?
## Output FALSE

## Input Hello, I need to know if UGGAAGACUAGUGAUUUUGUUG has measured 3' UTR reporter interaction score not below -0.02. Thanks!
## Output FALSE

## Input Is 3' UTR reporter interaction score for UAUGUGGGAUGGUAAACCGCUU at or above -0.02?
## Output FALSE

## Input Given the entry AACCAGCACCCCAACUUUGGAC , answer whether its 3' UTR reporter interaction score meets or surpasses -0.02.
## Output TRUE

---

- Test system: HRAS
- ASSAY EXPLANATION: 3' UTR reporter interaction score (median-centred robust z-score of log2 firefly/Renilla activity); higher = less repression of the 3' UTR reporter
- REPORTED CONDITIONS: HEK293T; 48 h
Outcome: True for 3' UTR reporter interaction score of at least -0.1; False for anything lower.

Please review the following examples before continuing.
- AAAGCGCUUCCCUUUGCUGGA: False
- UCAGUGCAUGACAGAACUUGGG: False
- UAAACGUGGAUGUACUUGCUUU: False
- AAACUACUGAAAAUCAAAGAU: False
- AAAGUGCUGCGACAUUUGAGCGU: True
- CAUCCCUUGCAUGGUGGAGGGU: False
- UAGAUAAAAUAUUGGUACCUG: True
- UUGGCCACAAUGGGUUAGAAC: True
- AAAGUAGCUGUACCAUUUGC: False
- AACACACCUGGUUAACCUCUUU: True

## Input In plain terms: is recorded 3' UTR reporter interaction score at least -0.1 for AGGAAUGUUCCUUCUUUGCC ?
## Output True

## Input Has UCUAGGCUGGUACUGCUGA a recorded 3' UTR reporter interaction score greater than or equal to -0.1?
## Output False

## Input Decide: 3' UTR reporter interaction score of AGACCCUGGUCUGCACUCUAU >= -0.1?
## Output True

## Input For this sequence, is measured 3' UTR reporter interaction score -0.1 or higher? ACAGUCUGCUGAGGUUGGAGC
## Output False

## Input Kindly determine if 3' UTR reporter interaction score recorded for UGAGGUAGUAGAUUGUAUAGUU is above or exactly -0.1.
## Output True

---

- Test system: PHF6
- ASSAY EXPLANATION: 3' UTR reporter interaction score (median-centred robust z-score of log2 firefly/Renilla activity); higher = less repression of the 3' UTR reporter
- REPORTED CONDITIONS: HEK293T; 48 h
3' UTR reporter interaction score of -0.01 or higher: T. Under -0.01: F.

- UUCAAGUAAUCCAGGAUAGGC: F
- UUCAAGUAAUUCAGGAUAGGUU: F

## Input Reported 3' UTR reporter interaction score reaches at least -0.01 for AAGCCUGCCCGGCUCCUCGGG ?
## Output F

## Input # check: 3' UTR reporter interaction score of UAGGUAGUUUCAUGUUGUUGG is greater than or equal to -0.01
## Output F

## Input Is the recorded value of 3' UTR reporter interaction score equal to or greater than -0.01 for this sequence? UGGCAGUGUCUUAGCUGGUUGUU
## Output F

## Input Dear colleague, could you confirm whether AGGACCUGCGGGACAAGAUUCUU has 3' UTR reporter interaction score at or above -0.01?
## Output F

## Input Could you tell me if the measured 3' UTR reporter interaction score of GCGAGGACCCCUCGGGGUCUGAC reaches -0.01 or more?
## Output F

## Input # check: 3' UTR reporter interaction score of UCAAAUGCUCAGACUCCUGU is greater than or equal to -0.01
## Output T

## Input Given UUUCCUAUGCAUAUACUUCUUU , state whether its 3' UTR reporter interaction score is at least -0.01.
## Output F

## Input Please check the record UUGGUCCCCUUCAACCAGCUGU and state if its 3' UTR reporter interaction score is at or above -0.01.
## Output F

## Input // inclusive: 3' UTR reporter interaction score at least -0.01? input: AAAGUGCUUCCCUUUGGACUGU
## Output T

## Input Exam item: decide whether the reported 3' UTR reporter interaction score for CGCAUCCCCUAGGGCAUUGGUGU is at least -0.01.
## Output F

## Input Does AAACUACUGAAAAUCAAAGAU have a reported 3' UTR reporter interaction score of at least -0.01?
## Output T

## Input Kindly determine if 3' UTR reporter interaction score recorded for AUCGCUGCGGUUGCGAGCGCUGU is above or exactly -0.01.
## Output T

## Input Please tell me: is the sequence GAAGGCGCUUCCCUUUGGAGU at or over -0.01 in terms of 3' UTR reporter interaction score?
## Output T

## Input Please tell me: is the sequence UCAGAACAAAUGCCGGUUCCCAGA at or over -0.01 in terms of 3' UTR reporter interaction score?
## Output T

---

- Tested on: NOTCH1
- ASSAY EXPLANATION: 3' UTR reporter interaction score (median-centred robust z-score of log2 firefly/Renilla activity); higher = less repression of the 3' UTR reporter
- REPORTED CONDITIONS: HEK293T; 48 h
# if value of 3' UTR reporter interaction score reaches -0.4, tag TRUE; if it stays below, tag FALSE

- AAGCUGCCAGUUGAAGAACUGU: TRUE
- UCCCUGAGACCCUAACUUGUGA: TRUE
- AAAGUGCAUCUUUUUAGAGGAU: TRUE
- UGAGGUAGUAGUUUGUGCUGU: FALSE
- UAAGUGCUUCCAUGUUUCAGUGG: TRUE

## Input Item CUUCUUGUGCUCUAGGAUUGU with 3' UTR reporter interaction score of -0.4 or above?
## Output FALSE

## Input Given the entry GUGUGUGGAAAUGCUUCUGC , answer whether its 3' UTR reporter interaction score meets or surpasses -0.4.
## Output TRUE

## Input Test whether the sequence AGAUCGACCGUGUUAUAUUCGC records 3' UTR reporter interaction score of -0.4 or higher.
## Output TRUE

## Input Reported 3' UTR reporter interaction score at or above -0.4? CUGGACUUGGAGUCAGAAGGCC
## Output FALSE

## Input Decide: is the reported value of 3' UTR reporter interaction score for UCCCUGUCCUCCAGGAGCUCA equal to or greater than -0.4?
## Output FALSE

## Input Threshold query (3' UTR reporter interaction score >= -0.4) on UGUUUGCAGAGGAAACUGAGAC
## Output FALSE

## Input Decide: is the reported value of 3' UTR reporter interaction score for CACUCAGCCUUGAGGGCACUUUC equal to or greater than -0.4?
## Output TRUE

## Input Entry GUUUGCACGGGUGGGCCUUGUCU : is its 3' UTR reporter interaction score no less than -0.4?
## Output TRUE

Values compiled from the supplement of paper PMC5844555.
